- Species: Homo sapiens
- measurement protocol: To identify inhibition of the IFN signalling (Jak-Stat) pathway via expression of an eGFP reporter gene under the control of an IFN-stimulated response element (ISRE) containing MxA promoter.
- Type: functional
- Set-up: scale not given: direction of the effect not stated beside the values
- protocol conditions: 30 µM
Below, each entry is listed alongside its reported Percent Effect.
observable: Percent Effect

[
  {
    "molecule": "CCS(=O)(=O)N1CC[C@H](OC)[C@@H]1Cc1ccncc1",
    "observable": "Percent Effect",
    "assay result": "7.61%"
  },
  {
    "molecule": "Cc1cnn(CC2CN(CC(=O)N3CCc4ccccc43)CCO2)c1 (configuration not stated)",
    "observable": "Percent Effect",
    "assay result": "6.22%"
  },
  {
    "molecule": "CNCC(=O)N1CCCC(c2cccc(Nc3nc(C)cc(C)n3)n2)C1 (configuration not stated)",
    "observable": "Percent Effect",
    "assay result": "22%"
  },
  {
    "molecule": "Cn1cnc2c1C(COCC1CCOCC1)CN(C(=O)c1ccoc1)C2 (configuration not stated)",
    "observable": "Percent Effect",
    "assay result": "-17.8%"
  },
  {
    "molecule": "Cc1ccc(F)cc1C(=O)N1C[C@@H](CN2CCOCC2)[C@@H](CO)C1",
    "observable": "Percent Effect",
    "assay result": "2.21%"
  },
  {
    "molecule": "COc1ccc(CCC(=O)Nc2cccnc2N2CCCC2)cc1Br",
    "observable": "Percent Effect",
    "assay result": "13.8%"
  },
  {
    "molecule": "CC(C(=O)N1CCc2ccccc2C1)n1cc(Br)cn1 (configuration not stated)",
    "observable": "Percent Effect",
    "assay result": "19.8%"
  },
  {
    "molecule": "Cc1cc(CN(C)C(=O)c2ccc(Cl)c(S(C)(=O)=O)c2)no1",
    "observable": "Percent Effect",
    "assay result": "6.05%"
  },
  {
    "molecule": "Cn1cccc1C(CNC(=O)c1ccc(F)cc1F)N1CCCCCC1 (configuration not stated)",
    "observable": "Percent Effect",
    "assay result": "11%"
  },
  {
    "molecule": "COc1ccc(F)cc1C(C)NC(=O)c1nnc(C)s1 (configuration not stated)",
    "observable": "Percent Effect",
    "assay result": "-14.3%"
  },
  {
    "molecule": "Cc1cc(NCc2cc3n(n2)CCCN(C(=O)N(C)C)C3)ncn1",
    "observable": "Percent Effect",
    "assay result": "4.33%"
  },
  {
    "molecule": "COc1ccc(C(C)N2CCN(Cc3nccn3C)CC2)cc1Cl (configuration not stated)",
    "observable": "Percent Effect",
    "assay result": "9.04%"
  },
  {
    "molecule": "COc1ccc(NC(=O)c2ccc(-n3ncc(C#N)c3N)cc2)cn1",
    "observable": "Percent Effect",
    "assay result": "8.55%"
  },
  {
    "molecule": "NC(=O)CSCC(=O)N1CCc2cc(Cl)cc(Cl)c2C1",
    "observable": "Percent Effect",
    "assay result": "-7.69%"
  },
  {
    "molecule": "Cc1ccc(C(C)NC(=O)Nc2ccccc2CN2CCOCC2)o1 (configuration not stated)",
    "observable": "Percent Effect",
    "assay result": "-2.32%"
  },
  {
    "molecule": "CNc1oc(-c2ccc(OC)c(S(=O)(=O)N3CCCCC3)c2)nc1C#N",
    "observable": "Percent Effect",
    "assay result": "-4.26%"
  },
  {
    "molecule": "Cc1ccsc1C(=O)N1Cc2ccccc2C2(CCN(C)CC2)C1",
    "observable": "Percent Effect",
    "assay result": "-24.7%"
  },
  {
    "molecule": "O=C(CCN1CCCN(c2nccs2)CC1)Nc1ccccc1",
    "observable": "Percent Effect",
    "assay result": "17.4%"
  },
  {
    "molecule": "CCOc1ccccc1C1CCCN1 (configuration not stated)",
    "observable": "Percent Effect",
    "assay result": "-5.78%"
  },
  {
    "molecule": "Cc1ccccc1N1CC2(CCN(S(=O)(=O)C3CC3)C2)CC1=O (configuration not stated)",
    "observable": "Percent Effect",
    "assay result": "11.8%"
  },
  {
    "molecule": "CCN1CCO[C@]2(CCC[C@H]2COCc2csc(C)n2)C1",
    "observable": "Percent Effect",
    "assay result": "-2.57%"
  },
  {
    "molecule": "CN1CCN(C2CCN(CC(=O)NCC(F)(F)F)CC2)C1=O",
    "observable": "Percent Effect",
    "assay result": "-11.8%"
  },
  {
    "molecule": "Cc1ccc(C)c(C(C(=O)O)N2CCCN(Cc3ccccn3)CC2)c1 (configuration not stated)",
    "observable": "Percent Effect",
    "assay result": "23.2%"
  },
  {
    "molecule": "CC(C)Oc1cccc(C(=O)C2CCCN(C(=O)c3ncn[nH]3)C2)c1 (configuration not stated)",
    "observable": "Percent Effect",
    "assay result": "3.35%"
  },
  {
    "molecule": "COc1c(CNC2CCCOc3ccccc32)c(C)nn1C (configuration not stated)",
    "observable": "Percent Effect",
    "assay result": "-6.93%"
  },
  {
    "molecule": "CC(C)CN1CCN(C(=O)NCc2cccnc2-n2cccn2)CC1",
    "observable": "Percent Effect",
    "assay result": "2.63%"
  },
  {
    "molecule": "CN(C)c1ccccc1C(=O)N1C[C@@H](CN2CCOCC2)[C@@H](CO)C1",
    "observable": "Percent Effect",
    "assay result": "22.3%"
  }
]
